Target Of Assay: NanoLuc (Oplophorus gracilirostris, UniProt Q9GV45, A31E/A60N/A81I/F95D/I117V/K70R/L54V/L99Q/M102K/N193R/P142E/Q151K/Q38R/Q45L/V71I/Y165I)
Sequence (Q9GV45 28-196 with tags or gaps with the stated changes limits assumed): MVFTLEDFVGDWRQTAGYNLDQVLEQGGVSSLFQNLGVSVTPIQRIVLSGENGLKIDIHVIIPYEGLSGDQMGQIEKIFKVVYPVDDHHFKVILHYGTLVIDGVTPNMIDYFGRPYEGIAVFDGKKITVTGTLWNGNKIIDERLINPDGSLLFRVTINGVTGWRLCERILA
Experiment: Inhibitor IC50 determination
Type: biochemical
Measurement Name: pIC50
To interpret pIC50, take it as minus log10 of a concentration measured in moles per litre.

Some solved entries appear below for comparison.
CCc1cccc(N(CC)C(=O)Cn2c(C(=O)N[C@H]3CC[C@H](C(=O)NCCCCCCNC(=O)c4ccc5c(c4)C4(OC5=O)c5ccc(N(C)C)cc5Oc5cc(N(C)C)ccc54)CC3)cc3ccccc32)c1 :: 8.48
CCc1cccc(N(CC)C(=O)Cn2c(C(=O)N[C@H]3CC[C@H](C(=O)NCCCCCCCC(=O)Oc4ccccc4)CC3)cc3ccccc32)c1 :: 9.92

Next, consider the following compound.
Form: compound = `CCN(C(=O)Cn1c(C(=O)N[C@H]2CC[C@H](C(=O)NCCCCCCCCNC(=O)c3ccc4c(c3)C(=O)OC43c4ccc(O)cc4Oc4cc(O)ccc43)CC2)cc2sccc21)c1cccc(C)c1` ; pIC50 = 8.27

====

Recorded IC50 by entry
Target Of Assay: NanoLuc (Oplophorus gracilirostris, UniProt Q9GV45, A31E/A60N/A81I/F95D/I117V/K70R/L54V/L99Q/M102K/N193R/P142E/Q151K/Q38R/Q45L/V71I/Y165I)
Experiment: Inhibitor IC50 determination
Type: biochemical
Cond: 0.4 ng/ml NANOLUC in CO2 independent media+10% FBS; final furimazine 10 μM; no pre-incubation noted; read-out: IC50
Form entry: value (µM) — number only.

Some solved entries appear below for comparison.
CCN(C(=O)Cn1c(C(=O)N[C@H]2CC[C@H](C(=O)NCCCCCCCCNC(=O)c3ccc4c(c3)C(=O)OC43c4ccc(N)cc4Oc4cc(N)ccc43)CC2)cc2sccc21)c1cccc(C)c1 :: 0.0063
CCN(C(=O)Cn1c(C(=O)N[C@H]2CC[C@H](C(=O)NCCCCCCNC(=O)c3ccc4c(c3)C3(OC4=O)c4ccc(N)cc4Oc4cc(N)ccc43)CC2)cc2sccc21)c1cccc(C)c1 :: 0.036

Next, consider the following compound.
Form: compound = CCN(C(=O)Cn1c(C(=O)NC2CCC(C(=O)NCCCCCCCCNC(=O)CCC3=[N+]4C(=Cc5c(C)cc(C)n5[B-]4(F)F)C=C3)CC2)cc2sccc21)c1cccc(C)c1 (stereo not drawn) ; IC50 = 0.28

====

Target Of Assay: NanoLuc (Oplophorus gracilirostris, UniProt Q9GV45, A31E/A60N/A81I/F95D/I117V/K70R/L54V/L99Q/M102K/N193R/P142E/Q151K/Q38R/Q45L/V71I/Y165I)
Experiment: Inhibitor IC50 determination
Format: biochemical
pIC50: −log10 of the molar value.
Would you mind labelling by pIC50? At or over 8 is Satisfied, under is Not satisfied.

CCN(C(=O)Cn1c(C(=O)N[C@H]2CC[C@H](C(=O)NCCCCCCCC(=O)ON3C(=O)CC(S(=O)(=O)O)C3=O)CC2)cc2sccc21)c1cccc(C)c1 (stereo partly drawn) :: Satisfied
CCN(C(=O)Cn1c(C(=O)N[C@H]2CC[C@H](C(=O)NCCCCCC(=O)NCCOCCOCCC(=O)ON3C(=O)CCC3=O)CC2)cc2sccc21)c1cccc(C)c1 :: Not satisfied
CCN(C(=O)Cn1c(C(=O)N[C@H]2CC[C@H](C(=O)NCCCCCCCC(=O)ON3C(=O)CCC3=O)CC2)cc2sccc21)c1cccc(C)c1 :: Satisfied

Task item: Could you please find out whether `CCN(C(=O)Cn1c(C(=O)N[C@H]2CC[C@H](C(=O)NCCCCCC(=O)NCCOCCOCCOCCOCCC(=O)ON3C(=O)CCC3=O)CC2)cc2sccc21)c1cccc(C)c1` has pIC50 that meets 8 or exceeds it?
Reply: Not satisfied

Task item: Could you please find out whether `CCN(C(=O)Cn1c(C(=O)N[C@H]2CC[C@H](C(=O)NCCCCCCNC(=O)CCOCCOCCNC(=O)CCN3C(=O)C=CC3=O)CC2)cc2sccc21)c1cccc(C)c1` has pIC50 that meets 8 or exceeds it?
Reply: Not satisfied

Task item: Could you please find out whether `CCN(C(=O)Cn1c(C(=O)N[C@H]2CC[C@H](C(=O)NCCCCCNC(=O)CCl)CC2)cc2sccc21)c1cccc(C)c1` has pIC50 that meets 8 or exceeds it?
Reply: Not satisfied

Task item: Could you please find out whether `CCN(C(=O)Cn1c(C(=O)N[C@H]2CC[C@H](C(=O)NCCCCCCCC(=O)Oc3cc(F)cc(F)c3)CC2)cc2sccc21)c1cccc(C)c1` has pIC50 that meets 8 or exceeds it?
Reply: Not satisfied

Task item: Could you please find out whether `CCc1cccc(N(CC)C(=O)Cn2c(C(=O)N[C@H]3CC[C@H](C(=O)NCCCCCC(=O)ON4C(=O)CCC4=O)CC3)cc3ccccc32)c1` has pIC50 that meets 8 or exceeds it?
Reply: Satisfied

Task item: Could you please find out whether `CCN(C(=O)Cn1c(C(=O)N[C@H]2CC[C@H](C(=O)OC)CC2)cc2sccc21)c1cccc(CCCBr)c1` has pIC50 that meets 8 or exceeds it?
Reply: Not satisfied

Task item: Could you please find out whether `CCc1cccc(N(CC)C(=O)Cn2c(C(=O)N[C@H]3CC[C@H](C(=O)NCCCCCCBr)CC3)cc3ccccc32)c1` has pIC50 that meets 8 or exceeds it?
Reply: Satisfied

Task item: Could you please find out whether `CCc1cccc(N(CC)C(=O)Cn2c(C(=O)N[C@H]3CC[C@H](C(=O)NCCCCCCCC(=O)OC)CC3)cc3ccccc32)c1` has pIC50 that meets 8 or exceeds it?
Reply: Satisfied
